- assayed.system: Replicase polyprotein 1ab (Severe acute respiratory syndrome coronavirus 2)
- measurement.protocol: Inhibition of SARS-CoV-2 3CL protease using MCA-AVLQSGFR-Lys(Dnp)-Lys-NH2 as flurogenic substrate pre-incubated with compound for 10 mins followed by substrate addition measured after 10 mins by FRET assay
readout.label: IC50 (µM)
Only the number, expressed in µM, is required.

compound: C=C1CC[C@H]2[C@@](C)(CCC[C@]2(C)C(=O)O)[C@@H]1C/C=C(\C)[C@H]1CCc2c(O)c(CC3C(=O)C(C(C)=O)=C(O)C(C)(C)C3O)c(O)c(C(=O)CCC)c2O1 (some centres not stated)
assayed.system: Replicase polyprotein 1ab (Severe acute respiratory syndrome coronavirus 2)
IC50 [µM]: 8.1

# context switch: different compound, same IC50
Task item: Give IC50 for the following compound: C=C1CC[C@H]2[C@@](C)(CCC[C@]2(C)C(=O)O)[C@@H]1C/C=C(\C)[C@@H]1CCc2c(O)c(CC3C(=O)C(C(C)=O)=C(O)C(C)(C)C3O)c(O)c(C(=O)CCC)c2O1 (some centres not stated)
Reply: 7.5
